biological target: Aβ42 (Homo sapiens, UniProt P05067); test: Th-T (thioflavin-T) assay of Aβ42 aggregation; type: biochemical; conditions: Supplementary Fig. 47; reading M138
Sequence (P05067 672-713): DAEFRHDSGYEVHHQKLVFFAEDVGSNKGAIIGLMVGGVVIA
This section presents molecules with their documented Th-T fluorescence, mean of three wells values.

Known Th-T fluorescence, mean of three wells results, listed for orientation:
C=C1CCC2C(C)(CC(=O)C=C(C)C)C(O)CCC2(C)C1Cc1c(O)c(C)c(C)oc1=O (stereo not shown) [Compound 7] :: 3.412
CC(C)=CCC/C(C)=C/CC/C(C)=C/CC/C(C)=C/Cc1c(O)c(C)c(C)oc1=O [Compound 2] :: 2.931
C=C1CCC2C(C)(CCC=C(C)C)C(O)CCC2(C)C1Cc1c(O)c(C)c(C)oc1=O (stereo not shown) [Compound 4] :: 2.752

Now take the following molecule into account.
Query C=C1CC[C@H]2[C@]3(C)C[C@@H](C=C(C)C)O[C@H]3CC[C@]2(C)[C@@H]1Cc1c(OC)oc(CO)c(C)c1=O [Compound 17] yields Th-T fluorescence, mean of three wells of 3.583

====

A collection of molecules and their measured Th-T fluorescence of Aβ42 (sheet Fig. 7a), mean of three wells
molecular target: Aβ42 (Homo sapiens); assay: Th-T (thioflavin-T) assay of Aβ42 aggregation; type: biochemical; settings: head suffix _50 (concentration 50); reading M69
Simply state the number, no unit and no words.

C=C1CCC2C(C)(CCC=C(C)C)C(O)CCC2(C)C1Cc1c(OC)oc(CO)c(C(=O)OC)c1=O (centres unmarked) :: 0.4713

Memo: C=C1CCC2C(C)(CCC=C(C)C)C(O)CCC2(C)C1Cc1c(OC)oc(C)c(C(=O)OC)c1=O (centres unmarked) , reported Th-T fluorescence of Aβ42 (sheet Fig. 7a), mean of three wells: 3.193

Quick note, Th-T fluorescence of Aβ42 (sheet Fig. 7a), mean of three wells for C=C1CC[C@@H]2[C@](C)(CC[C@H]3O[C@H](C=C(C)C)C[C@@]23C)[C@@H]1Cc1c(OC)oc(CO)c(C(=O)OC)c1=O landed at 0.2533

Notebook: C=C1CCC2C(C)(CCC=C(C)C)C(O)CCC2(C)C1Cc1c(OC)oc(CO)c(C)c1=O (centres unmarked) , Th-T fluorescence of Aβ42 (sheet Fig. 7a), mean of three wells read as 1.447

Reported Th-T fluorescence of Aβ42 (sheet Fig. 7a), mean of three wells of C=C1CC[C@@H]2[C@](C)(CC[C@H]3O[C@H](C=C(C)C)C[C@@]23C)[C@@H]1Cc1c(OC)oc(CO)c(C)c1=O : 2.087

====

Recorded measurements of Th-T fluorescence, mean of three wells, one per entry
molecular target: UniProtKB P05067; test: Th-T (thioflavin-T) assay of Aβ42 aggregation; type: biochemical; conditions: time-course reading M98; Supplementary Fig. 47 source data
Form rule: numeric answer, no unit written next to it.

Record excerpt, results attached:
C=C1CCC2C(C)(CC(=O)C=C(C)C)C(O)CCC2(C)C1Cc1c(OC)oc(CO)c(C)c1=O (stereo not drawn) :: 3.623
C=C1CC[C@H]2[C@]3(C)C[C@H](C=C(C)C)O[C@H]3CC[C@]2(C)[C@@H]1Cc1c(OC)oc(C)c(C)c1=O :: 4.028

Query compound follows.
Known value: UniProtKB P05067 Th-T fluorescence, mean of three wells of the compound C=C1CCC2C(C)(CC(=O)C=C(C)C)C(O)CCC2(C)C1Cc1c(OC)oc(C)c(C)c1=O (stereo not drawn) equals 3.647
